# Test system: ATP;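 note: ATP exposure 15 min at 22 °C before imaging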
# testMethodNotes: switch fluorescence ratio, 500 uM ATP over buffer (Cy3 cluster intensity, sum of 5 cycles each) (fold (ratio)); higher = stronger signal-on switching upon ATP binding; sequences stand for … in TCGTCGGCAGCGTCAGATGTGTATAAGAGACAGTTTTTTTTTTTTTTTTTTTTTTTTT…TC
# measurementContext: aptamer strand: ATP DNA aptamer (quencher-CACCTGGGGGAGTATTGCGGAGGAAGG + anchor), 100 nM annealed; ATP concentration: 500 uM
Reported switch fluorescence ratio is given for each of the following sequences.
# output: bare number, no unit

Sample answers from the record:
TGACGGAGAA: 1.01
CGGGGAAGAT: 0.981
GCCTCTTAAG: 1

Please find the next sequence below.
Requested read-out: switch fluorescence ratio. Entry: "GGTGGATGCC"
1.02
